# experiment: Cytotoxicity against human DU145 cells assessed as cell viability after 48 hrs by MTT assay
# Assay type: functional, cell-based
# experimental-setup: DU-145, 48 h
pIC50: −log10 of the molar value.

{"structure-notation": "CC(C)=CCC/C(C)=C/CC/C(C)=C/CC[C@@H]1[C@@]2(C)C/C(=C\\c3ccc(OCc4cn(-c5cccc([N+](=O)[O-])c5)nn4)cc3)C(=O)C(C)(C)[C@@H]2CC[C@@]1(C)O", "pIC50": 4.33}
{"structure-notation": "CC(C)=CCC/C(C)=C/CC/C(C)=C/CC[C@@H]1[C@@]2(C)C/C(=C\\c3ccc(OCc4cn(-c5c(Cl)cc([N+](=O)[O-])cc5Cl)nn4)cc3)C(=O)C(C)(C)[C@@H]2CC[C@@]1(C)O", "pIC50": 4.68}
{"structure-notation": "CC(C)=CCC/C(C)=C/CC/C(C)=C/CC[C@@H]1[C@@]2(C)C/C(=C\\c3ccc(OCc4cn(-c5ccncc5)nn4)cc3)C(=O)C(C)(C)[C@@H]2CC[C@@]1(C)O", "pIC50": 4.59}
{"structure-notation": "CC(C)=CCC/C(C)=C/CC/C(C)=C/CC[C@@H]1[C@@]2(C)CC/C(=N\\OCc3cn(-c4cccc(Br)c4)nn3)C(C)(C)[C@@H]2CC[C@@]1(C)O", "pIC50": 4.84}
{"structure-notation": "COc1cc(OC)c(-n2cc(COc3ccc(/C=C4\\C[C@]5(C)[C@@H](CC/C=C(\\C)CC/C=C(\\C)CCC=C(C)C)[C@](C)(O)CC[C@H]5C(C)(C)C4=O)cc3)nn2)c(OC)c1", "pIC50": 4.92}

====

# experiment: Cytotoxicity against human DU145 cells assessed as cell viability after 48 hrs by MTT assay
# Assay type: functional, cell-based
# experimental-setup: DU-145, 48 h
# IC50 per entry

{"structure-notation": "CC(C)=CCC/C(C)=C/CC/C(C)=C/CC[C@@H]1[C@@]2(C)C/C(=C\\c3ccc(OCc4cn(-c5ccccc5C#N)nn4)cc3)C(=O)C(C)(C)[C@@H]2CC[C@@]1(C)O", "value-units": "µM", "IC50": 25.1}
{"structure-notation": "CC(C)=CCC/C(C)=C/CC/C(C)=C/CC[C@@H]1[C@@]2(C)CC/C(=N\\OCc3cn(-c4c(Cl)cc([N+](=O)[O-])cc4Cl)nn3)C(C)(C)[C@@H]2CC[C@@]1(C)O", "value-units": "µM", "IC50": 16.4}
{"structure-notation": "CC(C)=CCC/C(C)=C/CC/C(C)=C/CC[C@@H]1[C@@]2(C)CCC(=O)C(C)(C)[C@@H]2CC[C@@]1(C)O", "value-units": "µM", "IC50": 13.2}
{"structure-notation": "CC(C)=CCC/C(C)=C/CC/C(C)=C/CC[C@@H]1[C@@]2(C)C/C(=C\\c3ccc(OCc4cn(-c5ccc(F)c(Cl)c5)nn4)cc3)C(=O)C(C)(C)[C@@H]2CC[C@@]1(C)O", "value-units": "µM", "IC50": 28.4}
{"structure-notation": "CC(C)=CCC/C(C)=C/CC/C(C)=C/CC[C@@H]1[C@@]2(C)CC/C(=N\\OCc3cn(-c4cccc(C(F)(F)F)c4)nn3)C(C)(C)[C@@H]2CC[C@@]1(C)O", "value-units": "µM", "IC50": 11.8}
{"structure-notation": "COc1cccc(-n2cc(CO/N=C3\\CC[C@]4(C)[C@@H](CC/C=C(\\C)CC/C=C(\\C)CCC=C(C)C)[C@](C)(O)CC[C@H]4C3(C)C)nn2)c1", "value-units": "µM", "IC50": 30.5}
{"structure-notation": "CC(C)=CCC/C(C)=C/CC/C(C)=C/CC[C@@H]1[C@@]2(C)CC/C(=N\\OCc3cn(-c4cccc([N+](=O)[O-])c4)nn3)C(C)(C)[C@@H]2CC[C@@]1(C)O", "value-units": "µM", "IC50": 17.4}
{"structure-notation": "CC(C)=CCC/C(C)=C/CC/C(C)=C/CC[C@@H]1[C@@]2(C)C/C(=C\\c3ccc(OCc4cn(-c5ccc(F)cc5)nn4)cc3)C(=O)C(C)(C)[C@@H]2CC[C@@]1(C)O", "value-units": "µM", "IC50": 33.6}
{"structure-notation": "CC(C)=CCC/C(C)=C/CC/C(C)=C/CC[C@@H]1[C@@]2(C)CC/C(=N\\OCc3cn(-c4cccc(O)c4)nn3)C(C)(C)[C@@H]2CC[C@@]1(C)O", "value-units": "µM", "IC50": 17.5}
